Where do the numbers come from? From patent US20240150377A1.

target: CFTR (Homo sapiens, UniProt P13569, DEL508-508); construct: endogenous in cells; host or cells: primary human bronchial epithelial cells from CF subjects (F508del/MF-HBE), differentiated at air-liquid interface; assay: HBE2 assay: Ussing chamber assay of CFTR-mediated short-circuit currents; assay type: cell-based; conditions: 3 μM; F508del/MF-HBE cells; with 44 nM potentiator; 18-24 hours; 20% human serum
Sequence (P13569 with tags, fused parts or gaps DEL508-508): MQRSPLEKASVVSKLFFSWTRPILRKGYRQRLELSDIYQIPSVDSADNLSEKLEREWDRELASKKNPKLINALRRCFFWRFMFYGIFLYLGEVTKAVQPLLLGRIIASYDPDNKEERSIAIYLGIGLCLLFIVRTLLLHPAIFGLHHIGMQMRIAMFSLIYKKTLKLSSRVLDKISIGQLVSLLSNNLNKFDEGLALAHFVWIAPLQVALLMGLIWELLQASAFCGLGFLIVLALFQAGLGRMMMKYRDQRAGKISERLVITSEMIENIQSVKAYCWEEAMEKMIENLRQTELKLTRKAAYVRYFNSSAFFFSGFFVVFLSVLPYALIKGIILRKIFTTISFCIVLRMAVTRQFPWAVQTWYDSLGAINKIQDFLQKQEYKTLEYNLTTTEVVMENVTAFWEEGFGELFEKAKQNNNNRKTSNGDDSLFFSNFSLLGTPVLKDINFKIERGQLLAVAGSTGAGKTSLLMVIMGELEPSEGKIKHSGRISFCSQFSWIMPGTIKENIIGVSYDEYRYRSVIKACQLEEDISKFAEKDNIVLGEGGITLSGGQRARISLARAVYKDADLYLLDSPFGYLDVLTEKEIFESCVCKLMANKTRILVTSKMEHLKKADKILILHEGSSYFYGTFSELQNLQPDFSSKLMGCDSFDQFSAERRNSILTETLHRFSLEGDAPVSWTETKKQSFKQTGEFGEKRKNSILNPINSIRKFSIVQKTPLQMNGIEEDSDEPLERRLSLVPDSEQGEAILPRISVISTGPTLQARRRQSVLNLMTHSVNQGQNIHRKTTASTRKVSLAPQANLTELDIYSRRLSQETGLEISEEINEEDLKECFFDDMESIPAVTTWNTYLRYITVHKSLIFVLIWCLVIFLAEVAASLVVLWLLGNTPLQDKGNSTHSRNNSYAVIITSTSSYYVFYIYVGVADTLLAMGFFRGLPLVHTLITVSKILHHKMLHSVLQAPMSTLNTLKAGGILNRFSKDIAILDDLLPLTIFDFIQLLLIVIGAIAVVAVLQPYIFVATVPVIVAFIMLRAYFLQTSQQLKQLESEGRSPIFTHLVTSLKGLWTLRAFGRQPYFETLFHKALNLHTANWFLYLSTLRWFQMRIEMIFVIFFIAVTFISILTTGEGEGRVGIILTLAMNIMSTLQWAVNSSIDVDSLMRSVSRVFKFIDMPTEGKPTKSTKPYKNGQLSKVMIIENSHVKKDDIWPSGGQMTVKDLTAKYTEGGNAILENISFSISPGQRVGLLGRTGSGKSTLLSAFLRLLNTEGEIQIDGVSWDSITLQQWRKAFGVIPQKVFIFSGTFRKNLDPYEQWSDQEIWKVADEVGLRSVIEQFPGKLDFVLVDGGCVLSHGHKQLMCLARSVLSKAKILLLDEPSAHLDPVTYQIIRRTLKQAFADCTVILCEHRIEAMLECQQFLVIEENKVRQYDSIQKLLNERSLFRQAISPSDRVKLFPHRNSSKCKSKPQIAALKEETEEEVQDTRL
MEASUREMENT LABEL: HBE2 Activity at 3 μM (%)

MOLECULE	HBE2 Activity at 3 μM (%)
Cc1cccc(C)c1-c1cc2nc(n1)NS(=O)(=O)c1cccc(c1)C(=O)N(Cc1cncc(N3CCC[C@H]4CC[C@H]43)n1)[C@H](CC(C)(C)C)CO2 (single isomer, unassigned) [Compound 1316]	+++ (+++ is >60+)
Cc1cccc(C)c1-c1cc2nc(n1)NS(=O)(=O)c1cccc(c1)C(=O)N(Cc1cccc(N3CC[C@H]3C)n1)[C@H](CC(C)(C)C)CO2 [Compound 1551]	+++ (+++ is >60+)
Cc1cccc(C)c1-c1cc2nc(n1)NS(=O)(=O)c1cccc(c1)C(=O)N(Cc1ncc(OC(C)C)cn1)[C@H](CC1(C)CCC1)CO2 [Compound 1317]	+++ (+++ is >60+)
Cc1cccc(C)c1-c1cc2nc(n1)NS(=O)(=O)c1cccc(c1)C(=O)N(Cc1ncc(OC(C)C)cn1)[C@H](CC1(C)CC1)CO2 [Compound 1306]	+++ (+++ is >60+)
CO[C@@H]1CC[C@@H]1N(C)c1cncc(CN2C(=O)c3cccc(c3)S(=O)(=O)Nc3nc(cc(-c4c(C)cccc4C)n3)OC[C@H]2CC(C)(C)C)n1 (stereo in doubt) [Compound 1607]	+++ (+++ is >60+)
Cc1cccc(C)c1-c1cc2nc(n1)NS(=O)(=O)c1cccc(c1)C(=O)N(Cc1cccc(N3CCC[C@H]3C)n1)[C@H](CC1(C)CC1)CO2 [Compound 1569]	+++ (+++ is >60+)

[Q] Enter measured HBE2 Activity at 3 μM (%), system CFTR (Homo sapiens, UniProt P13569, DEL508-508), for the molecule shown: CC[C@H](C)Oc1cnc(CN2C(=O)c3cccc(c3)S(=O)(=O)Nc3nc(cc(-c4c(C)cccc4C)n3)OC[C@H]2CC2(C)CC2)nc1 [Compound 1546]
[A] +++ (+++ is >60+)

[Q] Enter measured HBE2 Activity at 3 μM (%), system CFTR (Homo sapiens, UniProt P13569, DEL508-508), for the molecule shown: COC[C@@H]1CCN1c1cncc(CN2C(=O)c3cccc(c3)S(=O)(=O)Nc3nc(cc(-c4c(C)cccc4C)n3)OC[C@H]2CC(C)(C)C)n1 [Compound 1549]
[A] +++ (+++ is >60+)

[Q] Enter measured HBE2 Activity at 3 μM (%), system CFTR (Homo sapiens, UniProt P13569, DEL508-508), for the molecule shown: CC(=O)N(C)CCN(C)c1cncc(CN2C(=O)c3cccc(c3)S(=O)(=O)Nc3nc(cc(-c4c(C)cccc4C)n3)OC[C@H]2CC(C)(C)C)n1 [Compound 1661]
[A] +++ (+++ is >60+)

[Q] Enter measured HBE2 Activity at 3 μM (%), system CFTR (Homo sapiens, UniProt P13569, DEL508-508), for the molecule shown: Cc1cccc(C)c1-c1cc2nc(n1)NS(=O)(=O)c1cccc(c1)C(=O)N(Cc1cncc(N(C)C3CCC3)n1)[C@H](CCC1CC1)CO2 [Compound 1684]
[A] +++ (+++ is >60+)
